Tested on: K4 kissing-loop RNA reporter;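 also: bound reporter read as fluorescence of individual clusters on recovered sequencing chips by microscopy, with normalized cluster intensities fitted with a binding model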
Assay: apparent KD of K4 kissing-loop reporter; higher = weaker reporter binding
Conditions: Eterna round: R107; input ligand: theophylline 20 uM
Measured parameter: apparent KD of K4 kissing-loop reporter (nM)

[
  {
    "Item sequence": "AUAAUUAUGACGGCCGCCACUGAGAGUAGUGAUGUUACUCUUUUCCUUUAGUAAUAAUUUUUUAUCAGGACCGGGUUAUUUGAAU [JR_Nu_ExcTryptoB_Sub027]",
    "Unit descriptor": "nM",
    "Quantitative readout": 64.4
  },
  {
    "Item sequence": "AUUGCACCUGCGGCCGCCACUCACUCCGGGCUGCUGGCCAGUGAUGUUGGUACGGCUGCCGGUUAGAGGACCGGGCAGGAGCUAA [Esage]",
    "Unit descriptor": "nM",
    "Quantitative readout": 106
  },
  {
    "Item sequence": "GUUCUCGAAACUCAGUGAUGUUGAGUUGCAGAGGAUAUCCGCACAUGGAGAAGGCUGCAGUAAUUUAAAGACUCAGCGGCGCUCC [Riare]",
    "Unit descriptor": "nM",
    "Quantitative readout": 120
  },
  {
    "Item sequence": "AGGAUGUAGUGAUGUUAUAUAAAAGGUAAACGAGGACCGGUACGGCCGCCACUCGAAGCGGCUGCUAAGAGGGAAAGAAGAGGAA [ExTryptoA.E]",
    "Unit descriptor": "nM",
    "Quantitative readout": 684
  },
  {
    "Item sequence": "CCUAUCUCAUACGAUACCAGUCAAAUAAAUUAUAACGAGUGAUGUUCGAAAUGCCAUCACGACCCUUGGCAGCGUAUGGGAUAGG [Ex Theophylline B K4 1]",
    "Unit descriptor": "nM",
    "Quantitative readout": 186
  },
  {
    "Item sequence": "AAGUCAUAGGCAGGAUAUGCUUAGUAAUAAGGCCAUAUAUACGUAUAGAGUGAUGUUUUGUACCAGGCAGAAGGGCUACAUCAGU [FMN B Excl V8 (+2A)]",
    "Unit descriptor": "nM",
    "Quantitative readout": 532
  },
  {
    "Item sequence": "AAGUCAUAGGCAGGAUAUGCAUAGUAAUAAGGCAAUAUCUACGUAUAGAGUGAUGUUUUGUACCAGGCAGAAGGGCUACAUCAGU [FMN B Excl V9 (+4A/C)]",
    "Unit descriptor": "nM",
    "Quantitative readout": 554
  },
  {
    "Item sequence": "AAUAAAAUCACGGCCGCCACUGAUGCUAAUAUUAGCAGUGAUGUUGCUAUGUAGAUUUUAUUUAACAGGACCGGGUGAAUAUUUA [JR_SSTryptoB_Sub025]",
    "Unit descriptor": "nM",
    "Quantitative readout": 170
  },
  {
    "Item sequence": "GAAUAAUAUGUACCAGUGAUGUUGGUACAACGAGGACCGGUACGGCCGCCACUCGGAUACGAGUGGAUACAUCACUGACCAUUCG [(H1)-(H2)-(Trp1)-(Trp2)-(T)'-(H)'-(T)''_Design9]",
    "Unit descriptor": "nM",
    "Quantitative readout": 413
  },
  {
    "Item sequence": "GGUGACAGCCAGGAGUGAUGUAUAGAAUAGCGAGGACCGGUACGGCCGCCACUCGUGAAGAGAAAGGAGUGAUGUUCCGUAAUGG [Kazoo C2]",
    "Unit descriptor": "nM",
    "Quantitative readout": 308
  },
  {
    "Item sequence": "AUAGGCAUAGCCCGAGUGAUGUUCGACGAUACCAGCCUCGAUAGAGGCCCUUGGCAGCGUAAAUGAUCAUGAAGCCAAGGAAUUA [whbob_Ex_Theo_A_th70]",
    "Unit descriptor": "nM",
    "Quantitative readout": 394
  },
  {
    "Item sequence": "AAGUGUCAUUAGACACAGACUACAAUAAACUAGGAUAUGCUGAUAAGCAGAAGGAGUGAUGUUCCUUUCAAGUAGUCAAUUAAAU [FmnAX 20 Mat Inspired #SwitchBubble #StaticStem #K4Late]",
    "Unit descriptor": "nM",
    "Quantitative readout": 128
  },
  {
    "Item sequence": "AGGACGGUUAUGGAUACCAGUCCGGAACUUGUCCAUGGAGUGAUGUUCCGUCCAGCUCCGGACCCUUGGCAGCCAGACUGCUGAA [theeternabot_sameState_KL_Theo_B_41]",
    "Unit descriptor": "nM",
    "Quantitative readout": 138
  },
  {
    "Item sequence": "UUUGGUUUCUCGGCCGCCACUCGUUGUCUAUCGGCUUCAGGGAUAUAGUGAUGUUAUGUAUAGAAGAGGACCGGGAGAAGGUUUU [ExTryptoB.Dw]",
    "Unit descriptor": "nM",
    "Quantitative readout": 864
  },
  {
    "Item sequence": "UGUCAUUGGUCGGCCGCCACUCCAUAAAGAGUGAUGUUCUGAAAGACGGAUCGAAAGAUCUGUCGGAGGACCGGGACCGAUGACU [FiskerMod 3 - Jieux - Same State - Tryptophan B]",
    "Unit descriptor": "nM",
    "Quantitative readout": 896
  },
  {
    "Item sequence": "GGAUAGGAUAGAGGAUAUGGACUAGGCAAGAAUAACUUGUCUAGUAAAUCCAUGAGGAGUGAUGUUCCAGAAGGCUGUCCUAUCG [MatMod 3 - Jieux - Exclusion - FMN B]",
    "Unit descriptor": "nM",
    "Quantitative readout": 224
  },
  {
    "Item sequence": "UUUGGUAUCUCGGCCGCCACUCGUGGGAAAUGGGCCUCAGGGAUAUAGUGAUGUUAUGUAAAGAAGAGGACCGGGAGAAGGAAGG [ExTryptoB.Dk]",
    "Unit descriptor": "nM",
    "Quantitative readout": 481
  },
  {
    "Item sequence": "AGUGGACGUGUCUGGAGUGAUGUUCUGGAUACCAGACACGAAAGUGUCCCUUGGCAGCCGGAGUGAUGUUCCGGCGUUCACUAAA [Omei KL Theo A Exc B v5]",
    "Unit descriptor": "nM",
    "Quantitative readout": 396
  },
  {
    "Item sequence": "CAUAGGAAACUAUGUUCCUCUCUUACUGAAGGAGCGCGUGAAAACGCAGGUAGGUCGCAGGAUUUGAGAGUGAUGUUCUCAUUAA [Ex Arginine A K4 15]",
    "Unit descriptor": "nM",
    "Quantitative readout": 278
  },
  {
    "Item sequence": "UAACUUGCAGUGAUGUUGCAAGAACUGGAUACCAGCAUGGAAACAUGCCCUUGGCAGCCAGAAGCUGGCUGAACAUCACGUCAGU [Design5]",
    "Unit descriptor": "nM",
    "Quantitative readout": 159
  },
  {
    "Item sequence": "UGUUUUUACUGAAGGAGCGGCAAUUGAUACGUAGAUAUAGUGAUGUUAUAUAAGAUAGAGAGCCAGGUAGGUCGCAGAGUGUUUC [ExArgB.aA]",
    "Unit descriptor": "nM",
    "Quantitative readout": 194
  },
  {
    "Item sequence": "UUAAAAUAUAUAAAUAAUAAGGGAAUUGAUACCAGACAGAAUUCUGUCCCUUGGCAGCAGUGAUGUUGUUGCAAUUUAAAUAAUU [AK1 Exc Theophylline A]",
    "Unit descriptor": "nM",
    "Quantitative readout": 136
  },
  {
    "Item sequence": "UGACUGGACUGAAGGAGCGCGAAAACUCCUAGUGAUGUUAGGAAAACGAGACAAAGUCUCGCGCAGGUAGGUCGCAGUCUAGUCU [ArgBS 20 #SwitchBubble #StaticStem]",
    "Unit descriptor": "nM",
    "Quantitative readout": 129
  }
]

###

System: MS2 coat protein
Assay: apparent KD of MS2 coat protein; higher = weaker reporter binding
Conditions: Eterna round: R107; input ligand: theophylline 2 mM
# if value of apparent KD of MS2 coat protein reaches 40 nM, tag true (1); if it stays below, tag false (0)

[
  {
    "Item sequence": "GGACUCGUCACGGCCGCCACUGCGGUGGUGUGACAUGAGGAUCACCCAUGUUGUCAUGCGGCCCUUAGGACCGGGUGUCGCUUCC [#1 Exclusion - Tryptophan B Attempt #24 (HarryS)]",
    "Tested system": "MS2 coat protein",
    "Label": "true (1)"
  },
  {
    "Item sequence": "UUGGGUAUGCGAAGGAGCGGGAAAUAUAUAUAUAUAAUCCUAACAUGAGGAUCACCCAUGUCCCAGGUAGGUCGCGCAUGUUUGG [12.K]",
    "Tested system": "MS2 coat protein",
    "Label": "true (1)"
  },
  {
    "Item sequence": "GGACUAACCAGAAGGAGCGGCACAAAGCAGAAACUGCAUCCUCCGCACGAGGAUCACCCGUGUCAGGUAGGUCGCUGGUUAGUCG [ArgBX 28]",
    "Tested system": "MS2 coat protein",
    "Label": "true (1)"
  },
  {
    "Item sequence": "ACGUGCAGCAGAAGGAGCGUCUUAAUUCUACAUGAGGAUCACCCAUGUUUACAUUGGAUAUGACAGGUAGGUCGCUGAAGUACGA [#05 Same State - Arginine B]",
    "Tested system": "MS2 coat protein",
    "Label": "false (0)"
  },
  {
    "Item sequence": "GUUGGAUUCUCGGCCGCCACUGAGAGAGUCAUGUGAACAUGAGGAUCACCCAUGUAAUAUAUAUACAGGACCGGGAGGGUUGUAA [4.K]",
    "Tested system": "MS2 coat protein",
    "Label": "false (0)"
  },
  {
    "Item sequence": "ACGCCCAGGUAGGCUUAGUGGGAAAUGGAAGGAGCGCUGAUGCAAGCAGGUAGGUCGCCAACGAACAUGAGGAUCACCCAUGUAA [Same State - Arginine A (Freestyle 1)]",
    "Tested system": "MS2 coat protein",
    "Label": "false (0)"
  }
]
